# Test system: PC-3
# test name: NCI tumour cell line growth inhibition, 48 h
Activity calls are given as the source filed them. Cut-off read from the data, not from the text of the source: active = GI50 up to about 1.1 µM and inactive = higher.
assay readout: GI50

Answered cases to consult:
O=C1CC(NCCCNC2CC(=O)c3c(Br)sc(Br)c32)c2c(Br)sc(Br)c21 (stereo not given)    1.57 µM (inactive)
CCCCCCCCCCCCCC[C@@H](O)[C@H]1CC[C@H]([C@H]2CC[C@H]([C@H](O)CCCCCC[C@@H](O)CC3=C[C@H](C)OC3=O)O2)O1    > 25 µM (inactive)
Cc1cc(C#N)c(Nc2ccccc2[N+](=O)[O-])s1    23.8 µM (inactive)
COC(=O)C1=COC(OC2OC(CO)C(O)C(O)C2O)C2C3CN4CCc5c([nH]c6ccccc56)C4(CC12)O3 (stereo not given)    > 100 µM (inactive)

Look up GI50: CC(Nc1cc(Cl)cc(Cl)c1)c1ccncc1 (stereo not given) 12.1 µM (inactive)

Item: `CC(=NNC(=S)Nc1ccc(C)cc1)c1cccc(C(C)=NNC(=S)Nc2ccc(C)cc2)n1` 17.7 µM (inactive)

Item: `O=c1cccc2n1CC1CNC[C@H]2C1` > 100 µM (inactive)

---

The entries below are paired with their reported GI50.
# System: IGROV-1
# test name: NCI tumour cell line growth inhibition, 48 h
Active and inactive are the calls of the source. No stated cut-off is given here; in the data, active = GI50 up to about 1.1 µM and inactive = higher.

Answered cases to consult:
COc1cc(-c2nc(N)c(C#N)c3c2CCS(=O)(=O)c2ccc(C)cc2-3)cc(OC)c1OC    18.7 µM (inactive)
CCN(C(=O)N[C@H](C(=O)N[C@@H](C)C(=O)OC)C(C)C)c1ccccc1    28.1 µM (inactive)
COc1cc2c3c(cc(Cl)nc3c1OC)C(O)(CC(=O)c1ccccc1)C(=O)N2 (centres undefined)    13.2 µM (inactive)
O=C(c1ccncc1)n1nc(-c2ccccc2)c(/N=N/c2ccccc2[N+](=O)[O-])c1-c1ccccc1    73.8 µM (inactive)
COC1=CC(=O)c2c(CCNC(=O)OCc3ccccc3)n[nH]c2C1=O    15.4 µM (inactive)
NC(=O)C(=CNC(=S)c1ccncc1)C(N)=O    > 100 µM (inactive)
O=C(NC(=S)Nc1ccc(Br)cc1)c1ccc2c(c1)Sc1ccccc1S2    16.1 µM (inactive)
COC(=O)C1=C(O)C(C(=O)OC)[C@]2(O)[C@H](C(=O)OC)[C@H]1C[C@@H](c1ccc(F)cc1)[C@H]2C(=O)OC (some centres undefined)    18.8 µM (inactive)

Look up GI50: `COc1cc(/C=N/N=C2NCCN2)ccc1O` > 100 µM (inactive)

---

# System: MOLT-4
# test name: NCI tumour cell line growth inhibition, 48 h
Calls of active or inactive are those of the source. No stated cut-off is given here; in the data, active = GI50 up to about 1.1 µM and inactive = higher.
# output must be one of active, inactive

O=C(N/S(=N/S(=O)(=O)c1ccc(Br)cc1)C(Cl)(Cl)Cl)c1ccccc1 (configuration not stated)    inactive
O=CN1CCN(C(=O)c2ccc(Cl)c(Cl)c2)C1=S    inactive
CC12OC3(C)OC(=O)C(c4ccccc4)(O1)C3(C)O2 (configuration not stated)    inactive
CC(=O)N1C(C(=O)NC2CCCCC2)CSC1c1ccccc1 (configuration not stated)    inactive
Cc1c(Cl)c2ccccc2n1S(=O)(=O)c1ccccc1    inactive
CC1=C(C(=O)NNC(=O)CC#N)CC(C(=O)NNC(=O)CC#N)=C(C)N1    inactive
C=C1C(=O)[C@@]23CC[C@@H]4[C@@]5(C)CCC[C@@]4(OC5=O)C2(C)CC[C@]1(OC)C3 (some centres not stated)    active
CCOC(=O)c1c[nH]c2c(ccc3nn(C)nc32)c1=O    inactive

Tell me the recorded outcome of this test for `Cc1ncc(CCl)c(CCl)c1O` . inactive

Item: `OCCOCCN1CCN(CCCN2c3ccccc3Sc3ccc(C(F)(F)F)cc32)CC1` inactive

Item: `O=C1/C(=C/c2ccccc2)CNC/C1=C\c1ccccc1` active

Item: `CC[C@H]1C=CCC[C@@]2(C[C@@H]3CC[C@H]4[C@@H](C(=O)OCCCCCCCCCCCCCCCC(=O)N(CCCNC(C)=O)C[C@H](CCNC(C)=O)OC(C)=O)[C@@]5(CCC[C@@H](C)O5)NC(=[N+]34)N2)O1` inactive

Item: NC(=O)CCC(Nc1c2ccccc2[n+]([O-])c2ccccc12)C(=O)O (configuration not stated) inactive

Item: `O=c1c(-c2ccccc2)nnc2n(Cc3ccccc3)c3ccccc3n12` inactive

Item: C/C=C/C=C\C(=O)C1c2cccc(O)c2C(=O)c2c(O)cc(C)cc21 (configuration not stated) inactive

Item: `CC(=O)Nc1ccc(-c2nc3cc(Cl)ccc3o2)cc1` inactive

Item: CCOC(=O)CCC(NC(=O)c1ccc(Nc2cnc3ccc(C(F)(F)F)cc3n2)cc1)C(=O)OCC (configuration not stated) inactive

---

# Test system: UO-31
# test name: NCI tumour cell line growth inhibition, 48 h
Active and inactive are the calls of the source. Cut-off read from the data, not from the text of the source: active = GI50 up to about 1.1 µM and inactive = higher.
The entries below are paired with their reported GI50.

Cc1nn(-c2ccccc2)c(C)c1/C=N/NC(=O)c1sc(=S)n(-c2ccc(Cl)cc2)c1N    4.33 µM (inactive)
S=P1(Sc2ccccc2)Oc2ccc3ccccc3c2-c2c(ccc3ccccc23)O1    > 100 µM (inactive)
CC12OC3(C)OC(=O)C(c4ccccc4)(O1)C3(C)O2 (centres undefined)    > 100 µM (inactive)

Form field: GI50 recorded for `O/N=C1\CC2(N3CCOCC3)CCC1(Cc1ccccc1)CC2` with UO-31 (enter value) > 100 µM (inactive)

Item: CCCC(C)C[C@@H](C)CC(C)/C=C(\C)c1oc(=O)c(C)c(O)c1C.CC[C@@H](C)C[C@@H](C)C[C@@H](C)/C=C(\C)c1oc(=O)c(C)c(O)c1C (some centres undefined) 13.6 µM (inactive)

Item: `O=C1NC(=O)C(=O)C(c2nc3ccccc3s2)C1=O` > 100 µM (inactive)

Item: O=C1c2cc3c(cc2NC(c2ccccc2F)C1O)OCO3 (centres undefined) 27.7 µM (inactive)

Item: `O=C(O)CCSC(=O)Nc1ccccc1F` > 100 µM (inactive)

Item: `O=c1/c(=C/c2cccc([N+](=O)[O-])c2)sc2nc3ccccc3n12` > 100 µM (inactive)

---

# Test system: U-251
# test name: NCI tumour cell line growth inhibition, 48 h
The source made the active and inactive calls. Cut-off read from the data, not from the text of the source: active = GI50 up to about 1.1 µM and inactive = higher.
assay readout: GI50

O=C(NC(=S)Nc1ccc(Br)cc1)c1ccc2c(c1)Sc1ccccc1S2    19 µM (inactive)
CC(=O)Oc1ccc2c(C)cc(=O)oc2c1    > 100 µM (inactive)
Cc1ccc(NC(=O)c2cc(S(=O)(=O)Nc3nc4cccnc4[nH]3)c(SSc3cc(Cl)c(C(=O)Nc4ccc(C)cc4)cc3S(=O)(=O)Nc3nc4cccnc4[nH]3)cc2Cl)cc1    > 100 µM (inactive)
O=CN1CCN(C(=O)c2ccc(Cl)c(Cl)c2)C1=S    12.5 µM (inactive)
C[N+]1(C)[C@@H]2CC[C@H]1C[C@@H](OC(=O)C(CO)c1ccccc1)C2 (some centres undefined) [ATROPINE METHYLBROMIDE]    > 100 µM (inactive)

Form field: GI50 recorded for `O=C/C(=C(/Br)I)c1ccccc1` with U-251 (enter value) 4.1 µM (inactive)

---

# Test system: HCT-116
# test name: NCI tumour cell line growth inhibition, 48 h
Calls of active or inactive are those of the source. Cut-off read from the data, not from the text of the source: active = GI50 up to about 1.1 µM and inactive = higher.
assay readout: GI50

COc1cc(NS(C)(=O)=O)ccc1Nc1cc(C)nc2ccc3[nH]ccc3c12    > 100 µM (inactive)
Cc1ccc2oc(=O)cc(CC(=O)O)c2c1    > 100 µM (inactive)
O=c1/c(=C/c2cccc([N+](=O)[O-])c2)sc2nc3ccccc3n12    37.3 µM (inactive)
CC1(O)C2(c3ccccc3)CCC[N+]1(C)CC2 (stereo unspecified)    > 100 µM (inactive)
CC1(C)[C@H]2CC[C@](C)(C2)[C@]1(S)Cc1ccccn1    32.8 µM (inactive)
COCNC(=NC#N)NCOC    > 65.9 µM (inactive)
O=C(CCCN1CCC2(CC1)CC(=O)N(N1CCOCC1)C2=O)c1ccc(F)cc1    > 100 µM (inactive)
CCc1ccc(CCN2CCCCC2)nc1    > 100 µM (inactive)
NC(=S)N/N=C(/C(=O)Nc1nc2ccc([N+](=O)[O-])cc2s1)C1C(=O)NC(=S)NC1=O    > 100 µM (inactive)
CSc1ncnc2c1ncn2C1CC(Oc2ccc(C)cc2)C(COc2ccc(C)cc2)O1 (stereo unspecified)    > 100 µM (inactive)

Look up GI50: `CC(C)SC(=S)Sc1c(Cl)c(Cl)nc(Cl)c1Cl` 10.5 µM (inactive)

Item: C=C(C)C12OC1[C@@]1(C)C(=CC2=O)CCC(O)[C@@H]1C (stereo partly specified) 1.15 µM (inactive)

Item: COc1cccc(C23CCCC(C2)NCC3Br)c1OC (stereo unspecified) 30.8 µM (inactive)

Item: COc1ccc(P2(=S)Oc3ccc(C(c4ccccc4)(c4ccccc4)c4ccccc4)cc3O2)cc1 (stereo unspecified) 17.8 µM (inactive)

Item: `CC(C)=CCNc1ncnc2[nH]cnc12` > 100 µM (inactive)

Item: `COC(=O)c1cc2c3c(c1)Oc1cc(C(=O)OC)cc4c1C3c1c(cc(C(=O)OC)cc1O4)O2` 18.6 µM (inactive)
